# tested.system: SOS1 protein (Homo sapiens)
# test.name: SOS1 degradation assay (Western blot), NCI-H358 cells
# Format: cell-based
# Set-up: The degradation of SOS1 by the compounds was investigated on KRAS G12C mutant human non-small cell lung cancer cells NCI-H358; host or cells: NCI-H358 (human cancer cell lines)
# experimental.context: SOS1 degradation, NCI-H358 cells, 24 h, Western blot; read-out: NCI-H358 (G12C) DC50
# Protocol: The specific procedures were as follows: 0.95 mL of cells were seeded into each well of a 24-well cell culture plate to achieve a cell density of 5×10^5 cells/well; the cell plate was incubated in an incubator at 37° C. with 5% CO2 overnight. […] The concentration of total protein in the cell lysate supernatant was determined using the BCA Protein Quantification Kit (Tiangen, PA115-02). The concentration of total protein in the cell lysate was determined by BCA. […]
DC50 by entry:
measure.name: DC50

compound: [2H]C1([2H])CC(OCC2CCN(C(=O)c3ccc(Cl)c(N4CCC(=O)NC4=O)c3)CC2)CC([2H])([2H])N1C(=O)[C@H]1CC[C@H](c2cc3c(N[C@H](C)c4cc(N)cc(C(F)(F)F)c4)nc(C)nc3cc2OC)CC1 [Example 40]
result: 1000 to 10000 nM
//
compound: COc1cc2nc(C)nc(N[C@H](C)c3cc(NC(C)=O)cc(C(F)(F)F)c3)c2cc1[C@H]1CC[C@H](C(=O)N2CCN(CC3CCC4(CC3)CCN(C(=O)c3ccc(Cl)c(N5CCC(=O)NC5=O)c3)CC4)CC2)CC1 [Example 17]
result: 1000 to 10000 nM
//
compound: COc1cc2nc(C)nc(N[C@H](C)c3cc(N)cc(C(F)(F)F)c3)c2cc1C1CCN(C(=O)C2CCN(CC3CCC4(CC3)CCN(C(=O)c3ccc(Cl)c(N5CCC(=O)NC5=O)c3)CC4)CC2)CC1 [Example 4]
result: 50 to 100 nM
//
compound: COc1cc2nc(C)nc(N[C@H](C)c3cc(N)cc(C(F)(F)F)c3)c2cc1[C@H]1CC[C@H](C(=O)N2CCC(CCOCC3CCN(C(=O)c4ccc(Cl)c(N5CCC(=O)NC5=O)c4)CC3)CC2)CC1 [Example 19]
result: 100 to 500 nM
//
compound: [2H]C1([2H])CC(OCC2CCN(C(=O)[C@H]3CC[C@H](c4cc5c(N[C@H](C)c6cc(N)cc(C(F)(F)F)c6)nc(C)nc5cc4OC)CC3)CC2)CC([2H])([2H])N1C(=O)c1ccc(Cl)c(N2CCC(=O)NC2=O)c1 [Example 45]
result: 100 to 500 nM
//
compound: COc1cc2nc(C)nc(N[C@H](C)c3cc(-c4c(Cl)cccc4CN(C)C)cs3)c2cc1[C@H]1CC[C@H](C(=O)N2CCN(CCCCC3CCN(C(=O)c4ccc(Cl)c(N5CCC(=O)NC5=O)c4)CC3)CC2)CC1 [Example 71]
result: < 50 nM
//
compound: COc1cc2nc(C)nc(N[C@H](C)c3cc(-c4c(Cl)cccc4CN(C)C)cs3)c2cc1[C@H]1CC[C@H](C(=O)N2CCC(COCC3CCN(C(=O)c4ccc(Cl)c(N5CCC(=O)NC5=O)c4)CC3)CC2)CC1 [Example 65]
result: 1000 to 10000 nM

* * *

Dmax by entry:
# tested.system: SOS1 protein (Homo sapiens, UniProt Q07889)
# Sequence (Q07889 whole entry): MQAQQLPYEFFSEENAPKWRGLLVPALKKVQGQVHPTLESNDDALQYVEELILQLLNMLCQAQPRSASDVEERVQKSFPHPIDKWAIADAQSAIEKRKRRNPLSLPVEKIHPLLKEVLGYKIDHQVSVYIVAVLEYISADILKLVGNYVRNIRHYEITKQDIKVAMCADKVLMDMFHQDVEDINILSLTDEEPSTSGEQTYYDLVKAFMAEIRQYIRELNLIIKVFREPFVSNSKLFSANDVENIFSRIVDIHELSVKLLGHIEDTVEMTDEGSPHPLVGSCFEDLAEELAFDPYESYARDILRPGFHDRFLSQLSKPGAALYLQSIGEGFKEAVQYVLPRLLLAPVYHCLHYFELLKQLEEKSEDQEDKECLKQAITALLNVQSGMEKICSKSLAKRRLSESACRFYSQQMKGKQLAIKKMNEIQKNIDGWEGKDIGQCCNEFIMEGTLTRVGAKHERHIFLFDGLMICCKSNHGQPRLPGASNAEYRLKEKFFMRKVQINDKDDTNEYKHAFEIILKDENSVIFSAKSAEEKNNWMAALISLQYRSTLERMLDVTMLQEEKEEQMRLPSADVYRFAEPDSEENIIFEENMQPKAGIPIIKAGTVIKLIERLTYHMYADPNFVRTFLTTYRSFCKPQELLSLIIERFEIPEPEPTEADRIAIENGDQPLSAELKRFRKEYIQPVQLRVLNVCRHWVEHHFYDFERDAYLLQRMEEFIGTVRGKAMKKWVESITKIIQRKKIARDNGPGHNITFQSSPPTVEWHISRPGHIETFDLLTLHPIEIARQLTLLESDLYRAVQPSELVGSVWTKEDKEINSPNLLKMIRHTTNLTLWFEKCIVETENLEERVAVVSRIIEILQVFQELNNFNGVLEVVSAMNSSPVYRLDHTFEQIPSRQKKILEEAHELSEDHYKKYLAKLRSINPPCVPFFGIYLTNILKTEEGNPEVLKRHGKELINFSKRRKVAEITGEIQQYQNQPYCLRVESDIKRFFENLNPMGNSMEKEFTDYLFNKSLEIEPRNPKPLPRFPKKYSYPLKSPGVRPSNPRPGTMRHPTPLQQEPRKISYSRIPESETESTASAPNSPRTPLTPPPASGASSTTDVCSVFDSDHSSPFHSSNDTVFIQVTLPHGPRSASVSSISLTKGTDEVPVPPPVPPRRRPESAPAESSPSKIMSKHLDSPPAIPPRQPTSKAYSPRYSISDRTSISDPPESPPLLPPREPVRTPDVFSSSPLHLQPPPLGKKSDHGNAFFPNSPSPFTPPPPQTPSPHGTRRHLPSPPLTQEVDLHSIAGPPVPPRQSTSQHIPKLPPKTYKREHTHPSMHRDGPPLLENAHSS
# test.name: SOS1 degradation assay (Western blot), NCI-H358 cells
# Assay type: cell-based
# Design: The degradation of SOS1 by the compounds was investigated on KRAS G12C mutant human non-small cell lung cancer cells NCI-H358; host or cells: NCI-H358 (human cancer cell lines)
# experimental.context: SOS1 degradation, NCI-H358 cells, 24 h, Western blot; read-out: NCI-H358 (G12C) Dmax

mol.smiles: COc1cc2nc(C)nc(N[C@H](C)c3cc(N)cc(C(F)(F)F)c3)c2cc1[C@H]1CC[C@H](C(=O)N2CCC(CCC3CCN(C(=O)c4ccc(Cl)c(N5CCC(=O)NC5=O)c4)CC3)CC2)CC1
Dmax: < 30%
//
mol.smiles: COc1cc2nc(C)nc(N[C@H](C)c3cc(-c4c(Cl)cccc4CN(C)C)cs3)c2cc1[C@H]1CC[C@H](C(=O)N2CCN(CC3CCC4(CC3)CCN(C(=O)c3ccc(F)c(N5CCC(=O)NC5=O)c3)CC4)CC2)CC1
Dmax: 50 to 80%
//
mol.smiles: COc1cc2nc(C)nc(N[C@H](C)c3cc(-c4c(Cl)cccc4CN(C)C)cs3)c2cc1[C@H]1CC[C@H](C(=O)N2CCN(CCOCC3CCN(C(=O)c4ccc(Cl)c(N5CCC(=O)NC5=O)c4)CC3)CC2)CC1
Dmax: 80 to 100%

These measurements were taken from patent US20240261417A1.
